target: human S1P4 receptor (Homo sapiens); construct: expressed in transfected cells; host or cells: HEK293T, transient transfection; membranes; experiment: [γ-35S]GTP binding assay, HEK293T membranes; type: biochemical; conditions: -log molar concentration giving 50% of maximal [γ-35S]GTP binding; ± S.E.M.; read-out: pEC50 S1P4 (converted)
Sequence (O95977 whole entry): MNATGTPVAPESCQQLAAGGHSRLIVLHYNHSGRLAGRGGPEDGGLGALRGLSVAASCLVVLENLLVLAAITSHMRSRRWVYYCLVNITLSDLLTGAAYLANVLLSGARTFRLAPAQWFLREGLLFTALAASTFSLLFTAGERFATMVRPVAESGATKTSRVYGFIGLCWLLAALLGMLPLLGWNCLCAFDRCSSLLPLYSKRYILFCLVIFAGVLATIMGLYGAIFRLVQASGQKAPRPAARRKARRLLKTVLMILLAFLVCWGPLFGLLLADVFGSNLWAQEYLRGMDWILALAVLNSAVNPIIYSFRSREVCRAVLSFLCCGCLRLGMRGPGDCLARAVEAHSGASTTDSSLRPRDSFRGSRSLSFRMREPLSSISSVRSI
EC50 strictly under 200 nM means Met; at 200 nM or over means Not met.

Study these solved cases before continuing.
# compound, assigned_category
measured = [
    ("CCCCCCCCc1ccccc1NC(=O)[C@H](N)COP(=O)(O)O", "Not met"),
    ("CCCCCCCCCCc1cccc(NC(=O)[C@H](N)COP(=O)(O)O)c1", "Not met"),
    ("CCCCCCCc1cccc(NC(=O)[C@H](N)COP(=O)(O)O)c1", "Met"),
    ("CCCCCCCCCCCCC/C=C/[C@@H](O)[C@@H](N)COP(=O)(O)O [Compound S1P, Sphingosine 1-phosphate, reference compound]", "Met"),
    ("CCCCCCc1cccc(NC(=O)[C@H](N)COP(=O)(O)O)c1", "Not met"),
]

Here is another compound to look at.
Exercise: Is EC50 of CCCCCCCCCc1cccc(NC(=O)[C@H](N)COP(=O)(O)O)c1 strictly below 200 nM?
Key: Not met
